All figures here come from PubChem BioAssay (NCI).

# Tested on: OVCAR-3 ovarian
# assay info: NCI tumour cell line growth inhibition, 48 h
measurement label: TGI (µM)
Provide only the numeric value, understood in µM.

Solved entries (count: 3):
molecule: Cc1cc2c(-c3nc4ccccn4c3NC34CC5CC(CC(C5)C3)C4)c(O)c(O)cc2c(O)c1-c1c(C)cc2c(-c3nc4ccccn4c3NC34CC5CC(CC(C5)C3)C4)c(O)c(O)cc2c1O
TGI, µM: 8.3

molecule: CC(Br)CN(CC(C)Br)c1ccc2c(c1)Cc1ccccc1-2 (centres undefined)
TGI, µM: 24

molecule: Cc1nn(C(=O)c2ccccc2O)c2c1C(c1ccc([N+](=O)[O-])cc1)SC(N)=N2 (centres undefined)
TGI, µM: 9.95

Query string: Please supply the value of reported TGI for the item `O=C(/C(=N/Nc1cn[nH]c(=O)c1Cl)c1ccccc1)c1ccccc1`
Result string: 56.2

Query string: Let me know recorded TGI for `CCc1nc2c([nH]1)C(=O)c1ccccc1C2=O` , thanks.
Result string: 61.7

Query string: Supply measured TGI of `CC(C)c1ccc2c(c1)c(SC(C)(C)C)c(CC(C)(C)C(=O)O)n2Cc1ccc(Cl)cc1` in your reply.
Result string: 19.8

Query string: Give the reported value of TGI for this record: `COc1cc(/C=C2/C(=O)N(C(=O)c3ccccc3O)N=C2C)ccc1O`
Result string: 0.989

Query string: // Input: C=C1C(=O)C23CC1CCC2C12CO[C@@]3(O)[C@@H](O)C1C(C)(C)C=CC2=O (some centres undefined) . Output its TGI only.
Result string: 2.75

Query string: Indicate its recorded TGI; the molecule in question is CC1(C)Oc2ccccc2N2O[C@@H]3C(=O)N(c4ccccc4)C(=O)[C@@H]3C21c1ccccc1 (some centres undefined)
Result string: 47

----------
# Test system: UACC-62 melanoma
# assay info: NCI tumour cell line growth inhibition, 48 h
Threshold rule: TGI greater than or equal to 4 µM is 1.0; below that, 0.0.

// known answers, use as guide
molecule: Cc1cc2c(-c3nc4ccccn4c3NC34CC5CC(CC(C5)C3)C4)c(O)c(O)cc2c(O)c1-c1c(C)cc2c(-c3nc4ccccn4c3NC34CC5CC(CC(C5)C3)C4)c(O)c(O)cc2c1O
class label: 0.0
//
molecule: COc1ccc(-c2nn(-c3cccc(Cl)c3)cc2-c2cc(-c3cccs3)no2)cc1
class label: 1.0
//
molecule: c1cc2ccc1C1NCCCN1CCN1CCCNC1c1ccc(cc1)C1NCCCN1CCN1CCCNC21 (stereo not given)
class label: 1.0
//
molecule: NCCNc1nc2ccccc2c2c(=O)c3cc(F)cc(Cl)c3sc12
class label: 0.0
//
molecule: CCn1c(-c2nonc2N)nc2c(C#CC(C)(C)O)ncc(OC[C@@H]3CCCN3)c21
class label: 1.0

Query string: Quick check: does `N#Cc1c(-c2ccc(Cl)cc2)csc1NC(=O)Nc1cccc(C(F)(F)F)c1` have TGI greater than or equal to 4 µM?
Result string: 1.0

Query string: TGI >= 4 µM for O=c1cccc2n1CC1CNCC2C1 (stereo not given) ?
Result string: 1.0

Query string: Test whether the molecule `COc1ccccc1-c1nccc(COc2ccccc2C[C@@H](Oc2ncnc3sc(-c4ccc(F)cc4)c(-c4ccc(OCCN5CCN(C)CC5)c(Cl)c4C)c23)C(=O)O)n1` records TGI of 4 µM or higher.
Result string: 0.0
